Exercise: for every item that follows, state its recorded solubility thermodynamic at 24 h.
- measurement protocol: physchem
- details: FaSSIF, 23 °C, thermodynamic from solid
Please state the figure in µg/mL; there is no need to write the unit.

Ask: Requested field: solubility thermodynamic at 24 h. Item: COC1=NO[C@@]2(CC[C@H](C)N3C[C@H]2n2cc(C(=O)NCc4ccc(F)cc4F)c(=O)c(OCOC(=O)O[C@H](C)COP(=O)(O)O)c2C3=O)C1
Result: 4660

Ask: What do you get for CC1=NO[C@@]2(CC[C@H](C)N3C[C@H]2n2cc(C(=O)NCc4ccc(F)cc4F)c(=O)c(OCOC(=O)O[C@H](C)[C@H](C)OP(=O)(O)O)c2C3=O)C1 ?
Result: 4860

Ask: Same for COC1=NO[C@@]2(CC[C@H](C)N3C[C@H]2n2cc(C(=O)NCc4ccc(F)cc4F)c(=O)c(OCOC(=O)O[C@@H](C)COP(=O)(O)O)c2C3=O)C1
Result: 5000

Ask: # repeat for CC1=NO[C@@]2(CC[C@H](C)N3C[C@H]2n2cc(C(=O)NCc4ccc(F)cc4F)c(=O)c(OCOC(=O)OCC(C)(C)CN(CC(=O)O)C(=O)OCOP(=O)(O)O)c2C3=O)C1
Result: 4980

Ask: // same read-out, input: CC1=NO[C@@]2(CC[C@H](C)N3C[C@H]2n2cc(C(=O)NCc4ccc(F)cc4F)c(=O)c(OCOC(=O)OCC[N+](C)(C)C)c2C3=O)C1
Result: 4370

Ask: Do the same for CC1=NO[C@@]2(CC[C@H](C)N3C[C@H]2n2cc(C(=O)NCc4ccc(F)cc4F)c(=O)c(OCOC(=O)O[C@@H](C)[C@@H](C)OP(=O)(O)O)c2C3=O)C1 please
Result: 4630

Ask: Also, CC1=NO[C@@]2(CC[C@H](C)N3C[C@H]2n2cc(C(=O)NCc4ccc(F)cc4F)c(=O)c(O)c2C3=O)C1 [Intermediate B] please.
Result: 2

Ask: Item: CC1=NO[C@@]2(CC[C@H](C)N3C[C@H]2n2cc(C(=O)NCc4ccc(F)cc4F)c(=O)c(OCOC(=O)OCC(C)(C)N(C)C(=O)OCOP(=O)(O)O)c2C3=O)C1
Result: 5060

Ask: Now give it for CC1=NO[C@@]2(CC[C@H](C)N3C[C@H]2n2cc(C(=O)NCc4ccc(F)cc4F)c(=O)c(OCOC(=O)N(C)CCN(CC(=O)O)C(=O)OCOP(=O)(O)O)c2C3=O)C1 too.
Result: 5040

Ask: Next compound up: CC1=NO[C@@]2(CC[C@H](C)N3C[C@H]2n2cc(C(=O)NCc4ccc(F)cc4F)c(=O)c(OCOC(=O)O[C@H](C)C[C@@H](C)OP(=O)(O)O)c2C3=O)C1
Result: 4620

Ask: Same again, this time with CC1=NO[C@@]2(CC[C@H](C)N3C[C@H]2n2cc(C(=O)NCc4ccc(F)cc4F)c(=O)c(OCOC(=O)OCCOP(=O)(O)O)c2C3=O)C1
Result: 4300

Ask: Continue with COC1=NO[C@@]2(CC[C@H](C)N3C[C@H]2n2cc(C(=O)NCc4ccc(F)cc4F)c(=O)c(OCOC(=O)OC[C@H](C)COP(=O)(O)O)c2C3=O)C1
Result: 4620

Ask: And COC1=NO[C@@]2(CC[C@H](C)N3C[C@H]2n2cc(C(=O)NCc4ccc(F)cc4F)c(=O)c(OCOC(=O)OCC(C)(C)COP(=O)(O)O)c2C3=O)C1 ?
Result: 4800

Ask: And for COC1=NO[C@@]2(CC[C@H](C)N3C[C@H]2n2cc(C(=O)NCc4ccc(F)cc4F)c(=O)c(OCOC(=O)O[C@@H](C)[C@H](C)OP(=O)(O)O)c2C3=O)C1 ?
Result: 4880

Ask: # iterate: CC1=NO[C@@]2(CC[C@H](C)N3C[C@H]2n2cc(C(=O)NCc4ccc(F)cc4F)c(=O)c(OCOC(=O)CCCOP(=O)(O)O)c2C3=O)C1
Result: 5340
